- TEST TARGET: delF508-CFTR (Homo sapiens, UniProt P13569, DEL508-508)
- Construct: functional activity of the CFTR channel (Chloride ion transport) in patient derived primary human bronchial epithelial cells
- Sequence (P13569 with tags, fused parts or gaps DEL508-508): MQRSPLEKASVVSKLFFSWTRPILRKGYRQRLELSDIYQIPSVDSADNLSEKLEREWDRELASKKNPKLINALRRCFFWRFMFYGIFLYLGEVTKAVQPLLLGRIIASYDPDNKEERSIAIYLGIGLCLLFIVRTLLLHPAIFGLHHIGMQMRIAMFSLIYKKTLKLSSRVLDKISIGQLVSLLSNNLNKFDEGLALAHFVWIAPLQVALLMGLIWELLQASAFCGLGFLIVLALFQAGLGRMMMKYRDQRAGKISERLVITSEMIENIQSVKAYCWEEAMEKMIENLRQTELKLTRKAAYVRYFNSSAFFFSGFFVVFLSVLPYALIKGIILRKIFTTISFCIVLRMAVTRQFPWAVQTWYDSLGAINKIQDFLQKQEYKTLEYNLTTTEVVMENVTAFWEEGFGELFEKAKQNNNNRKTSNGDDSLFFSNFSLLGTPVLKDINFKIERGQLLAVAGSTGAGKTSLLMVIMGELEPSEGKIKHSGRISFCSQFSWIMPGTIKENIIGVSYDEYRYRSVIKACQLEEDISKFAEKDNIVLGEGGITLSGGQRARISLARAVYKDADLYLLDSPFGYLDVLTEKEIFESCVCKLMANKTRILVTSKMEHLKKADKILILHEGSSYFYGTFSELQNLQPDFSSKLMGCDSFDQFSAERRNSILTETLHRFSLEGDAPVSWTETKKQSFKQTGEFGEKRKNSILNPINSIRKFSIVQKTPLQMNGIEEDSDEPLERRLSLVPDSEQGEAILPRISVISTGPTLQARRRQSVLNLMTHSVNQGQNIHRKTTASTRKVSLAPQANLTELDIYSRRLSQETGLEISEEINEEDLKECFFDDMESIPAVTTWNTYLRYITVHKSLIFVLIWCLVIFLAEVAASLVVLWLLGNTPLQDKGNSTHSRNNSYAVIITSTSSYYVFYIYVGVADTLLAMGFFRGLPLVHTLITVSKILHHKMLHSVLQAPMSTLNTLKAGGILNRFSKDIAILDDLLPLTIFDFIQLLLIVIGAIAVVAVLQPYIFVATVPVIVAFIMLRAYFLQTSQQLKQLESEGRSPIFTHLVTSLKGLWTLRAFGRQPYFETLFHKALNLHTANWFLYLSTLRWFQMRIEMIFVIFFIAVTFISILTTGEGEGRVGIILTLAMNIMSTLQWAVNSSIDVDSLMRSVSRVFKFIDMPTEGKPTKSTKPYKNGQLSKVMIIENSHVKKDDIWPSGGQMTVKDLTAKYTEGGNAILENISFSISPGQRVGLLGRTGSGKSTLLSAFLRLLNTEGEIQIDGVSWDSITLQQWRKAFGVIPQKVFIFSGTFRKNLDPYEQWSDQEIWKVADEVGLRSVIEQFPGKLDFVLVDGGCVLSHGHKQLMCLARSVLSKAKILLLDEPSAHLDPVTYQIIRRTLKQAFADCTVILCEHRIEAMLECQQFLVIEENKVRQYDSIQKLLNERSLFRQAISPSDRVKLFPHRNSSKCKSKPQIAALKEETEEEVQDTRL
- ASSAY OVERVIEW: Measurement of delF508-CFTR functional activity in primary human bronchial epithelial cells (HBECs) using Multi-Transepithelial Clamp Circuit (MTECC-24) assay
- MEASUREMENT CONTEXT: primary CF HBECs; test compound added 24h before assay, in the presence of potentiator; mean of at least two replicates; read-out: MTECC24 CFHBEC- EC50
Counter-ions that a name gives are not always drawn.
Each entry below carries its reported EC50.
Numeric only. Scale: µM

Here is how some molecules turned out for EC50.
[
  {
    "MOLECULE": "COc1ccc(Cl)c(-c2nc(NS(=O)(=O)c3cccc(N4CC(O)C4)n3)ccc2Cl)c1",
    "SCALE UNIT": "µM",
    "EC50": 0.0381
  },
  {
    "MOLECULE": "O=S(=O)(Nc1ccc(Cl)c(-c2ccccc2Cl)n1)c1cccc(N2CC(O)C2)n1",
    "SCALE UNIT": "µM",
    "EC50": 0.0491
  },
  {
    "MOLECULE": "Cc1ccc(F)cc1-c1nc(NS(=O)(=O)c2cccc(N)n2)ccc1Cl",
    "SCALE UNIT": "µM",
    "EC50": 0.0131
  },
  {
    "MOLECULE": "COc1ccc(Cl)c(-c2nc(NS(=O)(=O)c3cccc(N4CCC(C)(C(=O)O)CC4)n3)ccc2C(F)(F)F)c1",
    "SCALE UNIT": "µM",
    "EC50": 0.0124
  },
  {
    "MOLECULE": "Cc1ccccc1-c1nc(NS(=O)(=O)c2cccc(N[C@H]3COCC[C@H]3O)n2)ccc1C(F)(F)F (single isomer, unassigned)",
    "SCALE UNIT": "µM",
    "EC50": 0.0024
  }
]

From here, focus on the item given below.
[ask] Which EC50 reading was recorded for the molecule Cc1ccccc1-c1nc(NS(=O)(=O)c2cccc(N3C[C@@H]4C[C@H]3CN4)n2)ccc1C(F)(F)F [Example 203, hydrochloride] ?
[reply] 0.0233

---

- TEST TARGET: horseradish peroxidase (HRP) tagged delF508-CFTR (Homo sapiens, UniProt P13569, DEL508-508)
- Construct: expressed in transfected cells
- Sequence (P13569 with tags, fused parts or gaps DEL508-508): as above
- ASSAY OVERVIEW: Measurement of delF508-CFTR-HRP surface expression in CFBE41o- cells;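 further: percent efficacy relative to reference corrector lumacaftor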
- Type: cell-based
- MEASUREMENT CONTEXT: delF508-CFTR-HRP surface expression, CFBE41o- cells; read-out: DelF508-CFTR-HRP Amax %
- Protocol: Measurement of delF508-CFTR-HRP Surface Expression in CFBE41o-Cells This assay quantifies the cell surface expressions of the mutant CFTR channel using an extracellular HRP tag. […] The median activity for the lowest concentration of the compounds on each assay plate was calculated and this value was used to normalize the signal for each well on the respective plate. […] The median value was determined and used to calculate compound activities as described below. […]
Counter-ions that a name gives are not always drawn.
QUANTITY KIND: Emax (%)
Numeric only. Scale: %

Here is how some compounds turned out for Emax.
[
  {
    "COMPOUND": "COc1ccc(Cl)c(-c2nc(NS(=O)(=O)c3cccc(N4CC(O)C4)n3)ccc2Cl)c1",
    "SCALE UNIT": "%",
    "OBSERVED": 405
  },
  {
    "COMPOUND": "Cc1ccccc1-c1nc(NS(=O)(=O)c2cccc(N[C@H]3CCCNC3)n2)ccc1C(F)(F)F [Example 105, Hydrochloride]",
    "SCALE UNIT": "%",
    "OBSERVED": 310
  },
  {
    "COMPOUND": "Cc1cccc(C)c1-c1nc(NS(=O)(=O)c2cccc(NC3CCOCC3)n2)ccc1Cl",
    "SCALE UNIT": "%",
    "OBSERVED": 837
  },
  {
    "COMPOUND": "Cc1ccc(F)cc1-c1nc(NS(=O)(=O)c2cccc(N3CC(O)C3)n2)ccc1Cl",
    "SCALE UNIT": "%",
    "OBSERVED": 513
  },
  {
    "COMPOUND": "Cc1cccc(C)c1-c1nc(NS(=O)(=O)c2cccc(N)n2)ccc1Br",
    "SCALE UNIT": "%",
    "OBSERVED": 688
  },
  {
    "COMPOUND": "Cc1ccccc1-c1nc(NS(=O)(=O)c2cccc(N3CCN4CC(F)(F)C[C@H]4C3)n2)ccc1C(F)(F)F",
    "SCALE UNIT": "%",
    "OBSERVED": 862
  }
]

[ask] Which Emax reading was recorded for the compound Nc1cccc(S(=O)(=O)Nc2ccc(Cl)c(-c3ccc(F)cc3Cl)n2)n1 ?
[reply] 301

[ask] Which Emax reading was recorded for the compound Nc1cccc(S(=O)(=O)Nc2ccc(Cl)c(-c3ccccc3Cl)n2)n1 ?
[reply] 485

---

- TEST TARGET: delF508-CFTR (Homo sapiens, UniProt P13569, DEL508-508)
- Construct: functional activity of the CFTR channel (Chloride ion transport) in patient derived primary human bronchial epithelial cells; host or cells: patient-derived primary human bronchial epithelial cells (delF508-CFTR)
- ASSAY OVERVIEW: Measurement of delF508-CFTR functional activity in primary human bronchial epithelial cells (HBECs) using Multi-Transepithelial Clamp Circuit (MTECC-24) assay
- Type: cell-based
- MEASUREMENT CONTEXT: primary CF HBECs; test compound added 24h before assay plus potentiator; relative to reference combination (2 μM corrector + 0.5 μM potentiator)
Where a name gives a salt, the structure may show the parent alone.
Would you please tag the item yes when its MTECC24 CFHBEC- Amax % is 80% or above, and no when it is below?

For orientation, consider the following solved cases.
[
  {
    "MOLECULE": "Cc1ccccc1-c1nc(NS(=O)(=O)c2cccc(OC3CC(C(=O)O)C3)n2)ccc1C(F)(F)F (mixture of isomers)",
    "GROUP LABEL": "no"
  },
  {
    "MOLECULE": "Cc1ccc(F)cc1-c1nc(NS(=O)(=O)c2cccc(N3CCN(C4CC4)CC3)n2)ccc1C(F)(F)F",
    "GROUP LABEL": "yes"
  }
]

[ask] Threshold query (MTECC24 CFHBEC- Amax % >= 80%) on Cc1cccc(Cl)c1-c1nc(NS(=O)(=O)c2cccc(N)n2)ccc1Cl
[reply] yes

[ask] Threshold query (MTECC24 CFHBEC- Amax % >= 80%) on Nc1cccc(S(=O)(=O)Nc2ccc(C(F)(F)F)c(-c3ccccc3C3CC3)n2)n1
[reply] no

[ask] Threshold query (MTECC24 CFHBEC- Amax % >= 80%) on O=S(=O)(Nc1ccc(C(F)(F)F)c(-c2ccccc2C(F)(F)F)n1)c1ccnc(N2CC(O)C2)c1
[reply] no

[ask] Threshold query (MTECC24 CFHBEC- Amax % >= 80%) on Cc1cccc(C)c1-c1cc(C(F)(F)F)cc(NS(=O)(=O)c2cccc(N3CCNCC3)n2)n1 [Example 133, Hydrochloride]
[reply] no

[ask] Threshold query (MTECC24 CFHBEC- Amax % >= 80%) on Cc1ccc(F)cc1-c1nc(NS(=O)(=O)c2cccc(N3CCN(C)CC3)n2)ccc1C(F)(F)F
[reply] yes

[ask] Threshold query (MTECC24 CFHBEC- Amax % >= 80%) on COc1ccc(Cl)c(-c2nc(NS(=O)(=O)c3cccc(N4CCC(C)(C(=O)O)CC4)n3)ccc2C(F)(F)F)c1
[reply] no

---

- TEST TARGET: horseradish peroxidase (HRP) tagged delF508-CFTR (Homo sapiens, UniProt P13569, DEL508-508)
- Construct: expressed in transfected cells
- ASSAY OVERVIEW: Measurement of delF508-CFTR-HRP surface expression in CFBE41o- cells;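 further: percent efficacy relative to reference corrector lumacaftor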
- Format: cell-based
- MEASUREMENT CONTEXT: delF508-CFTR-HRP surface expression, CFBE41o- cells; read-out: DelF508-CFTR-HRP Amax %
Where a name gives a salt, the structure may show the parent alone.
QUANTITY KIND: Emax (%)
Numeric only. Scale: %

[
  {
    "COMPOUND": "Cc1ccc(F)cc1-c1nc(NS(=O)(=O)c2ccnc(N)c2)ccc1Cl",
    "OBSERVED": 339
  },
  {
    "COMPOUND": "CC(F)(F)c1ccccc1-c1nc(NS(=O)(=O)c2cccc(N)n2)ccc1Cl",
    "OBSERVED": 334
  },
  {
    "COMPOUND": "Cc1ccccc1-c1nc(NS(=O)(=O)c2cccc(N3CCNC[C@@H]3C)n2)ccc1C(F)(F)F [Example 170, Hydrochloride]",
    "OBSERVED": 306
  },
  {
    "COMPOUND": "CCCC1(C(=O)O)CCCN(c2cccc(S(=O)(=O)Nc3ccc(C(F)(F)F)c(-c4ccccc4CC)n3)n2)C1 (stereo not drawn)",
    "OBSERVED": 714
  },
  {
    "COMPOUND": "COc1cc(NS(=O)(=O)c2cccc(N3CCNCC3)n2)nc(-c2c(C)cccc2C)c1",
    "OBSERVED": 53.2
  },
  {
    "COMPOUND": "Cc1cc(F)ccc1-c1nc(NS(=O)(=O)c2cccc(N3CC(C)(O)C3)n2)ccc1C(F)(F)F",
    "OBSERVED": 157
  },
  {
    "COMPOUND": "Cc1ccccc1-c1nc(NS(=O)(=O)c2cccnc2N)ccc1Cl",
    "OBSERVED": 92.9
  },
  {
    "COMPOUND": "CC1(C(=O)O)CCN(c2cccc(S(=O)(=O)Nc3ccc(C(F)(F)F)c(-c4ccccc4N4CCOCC4)n3)n2)CC1",
    "OBSERVED": 197
  },
  {
    "COMPOUND": "Cc1cccc(C)c1-c1nc(NS(=O)(=O)c2cccc(N3CCC(N)(C(=O)O)CC3)n2)ccc1Cl [Example 269, Hydrochloride]",
    "OBSERVED": 105
  },
  {
    "COMPOUND": "Cc1ccc(F)cc1-c1nc(NS(=O)(=O)c2cccc(N3CCN4CC[C@H]3C4)n2)ccc1C(F)(F)F",
    "OBSERVED": 159
  }
]

From here, focus on the item given below.
[ask] Which Emax reading was recorded for the compound O=S(=O)(Nc1ccc(C(F)(F)F)c(-c2ccccc2C(F)(F)F)n1)c1ccnc(N2CC(O)C2)c1 ?
[reply] 257
